- TGT: panel of 203 kinases (Homo sapiens, UniProt Q9HAZ1)
- Construct: purchased DiscoverX (KINOMEscan)
- Sequence (Q9HAZ1 whole entry): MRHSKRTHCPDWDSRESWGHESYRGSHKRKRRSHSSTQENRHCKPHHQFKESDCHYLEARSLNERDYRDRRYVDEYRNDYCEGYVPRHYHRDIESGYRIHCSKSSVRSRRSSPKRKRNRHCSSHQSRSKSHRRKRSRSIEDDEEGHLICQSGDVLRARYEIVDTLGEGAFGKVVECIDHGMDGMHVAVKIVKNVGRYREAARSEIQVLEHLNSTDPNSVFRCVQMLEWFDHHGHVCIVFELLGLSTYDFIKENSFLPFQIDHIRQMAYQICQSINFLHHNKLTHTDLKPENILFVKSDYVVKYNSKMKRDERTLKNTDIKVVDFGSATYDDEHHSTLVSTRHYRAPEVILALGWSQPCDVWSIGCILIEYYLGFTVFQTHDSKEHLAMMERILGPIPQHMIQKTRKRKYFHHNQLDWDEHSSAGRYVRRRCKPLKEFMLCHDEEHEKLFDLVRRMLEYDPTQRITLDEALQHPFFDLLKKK
- EXPERIMENTAL_DETAILS: KINOMEscan competitive binding, whole panel
- CONDITION_PARAMETERS: 10 µM, n=1; kinase CLK4; read-out: Percent inhibition CLK4
QUANTITY_NAME: inhibition at 10 µM (%)
Give just the number in %; leave the unit off.

Examples with their reported inhibition at 10 µM follow.
{"columns": ["SMILES_STRING", "TGT", "NUMERIC_RESULT"],
 "data": [
  ["Clc1ccc(Nc2ncc(-c3ccccc3)s2)cc1", "panel of 203 kinases (Homo sapiens, UniProt Q9HAZ1)", 0],
  ["Cc1ccc(O)cc1Nc1ccnc(Nc2cccc(C(N)=O)c2)n1", "panel of 203 kinases (Homo sapiens, UniProt Q9HAZ1)", 0]
]}

# inhibition at 10 µM (molecule: Cc1ccc(O)cc1N(C)c1ccnc(Nc2cccc(S(N)(=O)=O)c2)n1 ) is 0

# inhibition at 10 µM (molecule: COc1ccc(Nc2nccc(-c3cnn4ncccc34)n2)cc1 ) is 98.7

# inhibition at 10 µM (molecule: CN1CCN(c2ccc(Nc3nccc(-c4cnn5ncccc45)n3)cc2C#N)CC1 ) is 99.5

====

- TGT: panel of 203 kinases (Homo sapiens)
- Construct: purchased DiscoverX (KINOMEscan)
- EXPERIMENTAL_DETAILS: KINOMEscan competitive binding, whole panel
- CONDITION_PARAMETERS: 10 µM, n=1; kinase LIMK2; read-out: Percent inhibition LIMK2
QUANTITY_NAME: inhibition at 10 µM
Mention the unit after the number when you answer.

{"columns": ["SMILES_STRING", "inhibition at 10 µM"],
 "data": [
  ["COc1ccc(Nc2nccc(-c3cnn4ncccc34)n2)cc1", "88%"]
]}

# inhibition at 10 µM (molecule: Fc1cccc(COc2ccc(Nc3ncnc4c3CN(CCN3CCOCC3)CC4)cc2Cl)c1 ) is 0%

# inhibition at 10 µM (molecule: c1ccc(COc2cccc(-c3ccnc4[nH]ccc34)c2)cc1 ) is 0%

# inhibition at 10 µM (molecule: COc1cc(Nc2nccc(-c3sc(N)nc3-c3cccc(NC(=O)c4c(F)cccc4F)c3)n2)cc(OC)c1OC ) is 100%

# inhibition at 10 µM (molecule: Cc1ccc(O)cc1N(C)c1ccnc(Nc2cccc(S(N)(=O)=O)c2)n1 ) is 96%

====

# inhibition at 10 µM annotations
- TGT: panel of 203 kinases (Homo sapiens)
- Construct: purchased DiscoverX (KINOMEscan)
- Sequence (P54762 18-984): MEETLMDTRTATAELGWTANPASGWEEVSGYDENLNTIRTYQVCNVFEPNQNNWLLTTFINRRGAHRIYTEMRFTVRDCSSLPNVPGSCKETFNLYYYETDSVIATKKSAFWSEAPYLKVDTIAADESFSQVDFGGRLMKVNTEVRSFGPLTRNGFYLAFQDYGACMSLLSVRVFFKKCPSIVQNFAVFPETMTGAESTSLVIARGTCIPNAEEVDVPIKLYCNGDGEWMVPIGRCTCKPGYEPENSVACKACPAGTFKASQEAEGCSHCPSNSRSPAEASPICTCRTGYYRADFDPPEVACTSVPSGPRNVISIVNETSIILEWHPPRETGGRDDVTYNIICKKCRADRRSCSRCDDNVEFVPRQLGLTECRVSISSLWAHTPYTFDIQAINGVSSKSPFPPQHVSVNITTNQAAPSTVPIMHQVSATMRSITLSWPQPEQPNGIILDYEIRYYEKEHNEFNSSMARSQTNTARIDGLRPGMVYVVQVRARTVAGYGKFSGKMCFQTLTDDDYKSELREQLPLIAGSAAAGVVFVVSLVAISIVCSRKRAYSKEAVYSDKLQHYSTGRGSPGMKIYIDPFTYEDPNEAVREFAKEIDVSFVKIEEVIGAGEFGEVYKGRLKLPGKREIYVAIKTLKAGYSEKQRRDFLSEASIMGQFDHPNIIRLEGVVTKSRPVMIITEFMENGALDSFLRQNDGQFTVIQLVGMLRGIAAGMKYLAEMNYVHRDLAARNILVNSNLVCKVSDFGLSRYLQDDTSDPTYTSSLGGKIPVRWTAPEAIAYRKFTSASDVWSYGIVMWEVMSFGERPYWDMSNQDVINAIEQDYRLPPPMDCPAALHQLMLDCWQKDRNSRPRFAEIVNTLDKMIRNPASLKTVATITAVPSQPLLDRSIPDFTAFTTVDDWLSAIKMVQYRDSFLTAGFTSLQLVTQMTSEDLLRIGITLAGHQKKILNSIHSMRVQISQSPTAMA
- EXPERIMENTAL_DETAILS: KINOMEscan competitive binding, whole panel
- CONDITION_PARAMETERS: 10 µM, n=1; kinase EPHB1; read-out: Percent inhibition EPHB1
Give just the number in %; leave the unit off.

{"columns": ["SMILES_STRING", "inhibition at 10 µM / %"],
 "data": [
  ["Fc1cccc(COc2ccc(Nc3ncnc4c3CN(CCN3CCOCC3)CC4)cc2Cl)c1", 0],
  ["Cc1ccc(O)cc1N(C)c1ccnc(Nc2cccc(S(N)(=O)=O)c2)n1", 100],
  ["COc1cc(Nc2nccc(-c3sc(N)nc3-c3cccc(NC(=O)c4c(F)cccc4F)c3)n2)cc(OC)c1OC", 100],
  ["c1ccc(COc2cccc(-c3ccnc4[nH]ccc34)c2)cc1", 0],
  ["Nc1ncc2c(-c3ccncc3)c[nH]c2n1", 81.9]
]}

Record Cc1ccc(O)cc1Nc1ccnc(Nc2cccc(C(N)=O)c2)n1 has panel of 203 kinases (Homo sapiens) inhibition at 10 µM equal to 100

Record Clc1ccc(Nc2ncc(-c3ccccc3)s2)cc1 has panel of 203 kinases (Homo sapiens) inhibition at 10 µM equal to 0

Record C[C@@H](Oc1cc(-c2cnc3ccccn23)sc1C(N)=O)c1ccccc1Cl has panel of 203 kinases (Homo sapiens) inhibition at 10 µM equal to 0

Record CN1CCN(c2ccc(Nc3nccc(-c4cnn5ncccc45)n3)cc2C#N)CC1 has panel of 203 kinases (Homo sapiens) inhibition at 10 µM equal to 99.3

Record COc1ccc(Nc2nccc(-c3cnn4ncccc34)n2)cc1 has panel of 203 kinases (Homo sapiens) inhibition at 10 µM equal to 99.8

Every entry's value here was drawn from paper PMC9927415.
